responders at 15 µM values by entry
Test system: tre^tc318 mutant embryos
Experiment: Compound rescue screen: restoration of persistent heartbeat in tremblor embryos
Assay type: in vivo, Zebrafish
Conditions: Danio rerio, 48 h, read-out: Rescue at 15 uM (%)
Description: Zebrafish of the mutant line tremblor (tre^tc318) were maintained and bred as described previously in the literature. C. f. Langenbacher A D, et al., PNAS, 2005, 102(49), 17699-17704. Exemplary compounds were screened for their ability to partially or completely restore persistent heartbeat in tre^tc318 embryos. […] Cardiac function was analyzed by visual inspection at 2 dpf. […]
Outcome measure: responders at 15 µM (%)

> print(dat)
                                    compound      outcome.measure  result.value
 1  CCOC(=O)C1=CCN(S(=O)(=O)c2cccc(Cl)c2)C1c1cccc(F)c1 (stereo not shown)  responders at 15 µM            56
 2  CCOC(=O)C1=CCN(S(=O)(=O)c2ccc(F)cc2)C1c1cccc(Br)c1 (stereo not shown)  responders at 15 µM            30
 3  CCOC(=O)C1=CCN(S(=O)(=O)c2ccccc2F)C1c1ccc(Cl)c(Cl)c1 (stereo not shown)  responders at 15 µM            30
 4  CCOC(=O)C1=CCN(S(=O)(=O)c2ccccc2C(=O)OC)C1c1ccc(C)cc1 (stereo not shown)  responders at 15 µM            60
 5  CCOC(=O)C1=CCN(S(=O)(=O)c2ccc(C)cc2)C1c1ccc(C(=O)OCC)cc1 (stereo not shown)  responders at 15 µM            56
 6  CCOC(=O)C1=CCN(S(=O)(=O)c2ccc(Br)cc2)C1c1cccc(Br)c1 (stereo not shown)  responders at 15 µM            75
 7  CCOC(=O)C1=CCN(S(=O)(=O)c2ccc(Br)cc2)C1c1ccc(Cl)c(Cl)c1 (stereo not shown)  responders at 15 µM            11
 8  CCOC(=O)C1=CCN(S(=O)(=O)c2ccc(Br)cc2)C1c1ccc(Cl)cc1 (stereo not shown)  responders at 15 µM            33
 9  CCOC(=O)C1=CCN(S(=O)(=O)c2ccccc2Cl)C1c1ccc(Cl)cc1 (stereo not shown)  responders at 15 µM            30
10  CCOC(=O)C1=CCN(S(=O)(=O)c2ccccc2Br)C1c1ccc(Cl)c(Cl)c1 (stereo not shown)  responders at 15 µM            10

###

Measured responders at 15 µM, listed per entry.
Tested on: tre^tc318 mutant embryos
Assay: Compound rescue screen: restoration of persistent heartbeat in tremblor embryos
Assay type: in vivo, Zebrafish
Conditions: Danio rerio, 48 h, read-out: Rescue at 15 uM (%)
Outcome measure: responders at 15 µM (%)

> print(dat)
                                    molecule                       tgt      outcome.measure  result.value
 1  CCOC(=O)C1=CCN(S(=O)(=O)c2ccccc2Br)C1c1ccc(Br)cc1 (stereo not shown)  tre^tc318 mutant embryos  responders at 15 µM            10
 2  CCOC(=O)C1=CCN(S(=O)(=O)c2cccc(F)c2)C1c1ccc(F)cc1 (stereo not shown)  tre^tc318 mutant embryos  responders at 15 µM            50
 3  CCOC(=O)C1=CCN(S(=O)(=O)c2ccc(F)cc2)C1c1cccc(F)c1 (stereo not shown)  tre^tc318 mutant embryos  responders at 15 µM            11
 4  CCOC(=O)C1=CCN(S(=O)(=O)c2ccc(F)cc2)C1c1cccc(Cl)c1 (stereo not shown)  tre^tc318 mutant embryos  responders at 15 µM            22
 5  CCOC(=O)C1=CCN(S(=O)(=O)c2cccc(Br)c2)C1c1ccc(Br)cc1 (stereo not shown)  tre^tc318 mutant embryos  responders at 15 µM             0
 6  CCOC(=O)C1=CCN(S(=O)(=O)c2cccc(Br)c2)C1c1ccc(F)cc1 (stereo not shown)  tre^tc318 mutant embryos  responders at 15 µM            50
 7  CCOC(=O)C1=CCN(S(=O)(=O)c2ccc(C)cc2)C1c1ccccc1 (stereo not shown) [FS001, efsevin, reference compound]  tre^tc318 mutant embryos  responders at 15 µM            80
 8  CCOC(=O)C1=CCN(S(=O)(=O)c2ccc(C)cc2)C1c1ccc(CC)cc1 (stereo not shown)  tre^tc318 mutant embryos  responders at 15 µM            80
 9  CCOC(=O)C1=CCN(S(=O)(=O)c2ccc(C)cc2)C1c1ccc(C#N)cc1 (stereo not shown)  tre^tc318 mutant embryos  responders at 15 µM            60
10  CCOC(=O)C1=CCN(S(=O)(=O)c2cccc(Cl)c2)C1c1ccc(Cl)c(Cl)c1 (stereo not shown)  tre^tc318 mutant embryos  responders at 15 µM            10
